B1: Androgen receptor, residues 557 to 632; numbered along this chain, P10275 (parent)
chain: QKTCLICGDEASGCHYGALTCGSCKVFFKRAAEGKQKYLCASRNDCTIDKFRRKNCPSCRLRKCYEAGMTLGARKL

Variants of: B1
Experiment: abundance fitness (aPCA) (normalised: wild type 0, dead -1); higher = more abundant; growth selection in yeast, the domain comes from the species named
Details: Homo sapiens

# mutant label, abundance fitness
data = [
    ("C14G", -0.11),
    ("C56Q", -1.01),
    ("E33P", -0.135),
    ("Q36N", -0.134),
    ("G72C", -0.075),
    ("K29V", -0.215),
    ("R74P", 0.13),
    ("N55Y", -0.067),
]
